Target: Endothelin receptor type B (Rattus norvegicus, UniProt P21451)
Sequence (P21451 whole entry): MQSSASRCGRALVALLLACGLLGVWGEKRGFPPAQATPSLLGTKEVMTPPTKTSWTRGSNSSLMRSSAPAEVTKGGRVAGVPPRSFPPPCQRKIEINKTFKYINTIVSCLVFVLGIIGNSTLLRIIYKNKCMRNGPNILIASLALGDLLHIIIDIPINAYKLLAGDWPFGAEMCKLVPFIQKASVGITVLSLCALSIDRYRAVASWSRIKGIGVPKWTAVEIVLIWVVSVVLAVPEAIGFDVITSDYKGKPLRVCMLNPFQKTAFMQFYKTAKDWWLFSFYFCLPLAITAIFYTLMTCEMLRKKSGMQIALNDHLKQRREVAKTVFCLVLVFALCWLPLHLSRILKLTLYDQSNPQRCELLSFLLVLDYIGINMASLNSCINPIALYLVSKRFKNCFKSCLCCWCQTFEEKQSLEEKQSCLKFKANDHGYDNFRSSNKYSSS
Assay: Binding affinity against endothelin B receptor rat cerebellar membranes.
Numbered stars: 1 amine (or outer) side, 2 acyl side, 3 side chain; on linkers, the order of the positions; unused ones are H or OH. Square brackets hold non-standard residues; d marks the D form. Peptide text beside a SMILES is read from it. * marks the point of attachment. dGly(5-dibenzosuberyl) = N[C@@H](C(=O)O)C1c2ccccc2CCc2ccccc21; X3 = O=C([C@@H](N[*:1])C(c1ccccc1)(c1ccccc1)c1ccccc1)[*:2]; dDip = N[C@@H](C(=O)O)C(c1ccccc1)c1ccccc1; Dip = N[C@H](C(=O)O)C(c1ccccc1)c1ccccc1; Propionyl = CCC(=O)*; Bz = O=C(c1ccccc1)*; Ms = CS(=O)(=O)*
Below: a set of entries, each annotated with reported log10 of IC50.
metric-name: log10 of IC50 (log10 of the value in µM)

compound	log10 of IC50
CC[C@H](C)[C@H](NC(=O)[C@H](CC(=O)O)NC(=O)[C@H](CC(C)C)NC(=O)[C@@H](N)C(c1ccccc1)(c1ccccc1)c1ccccc1)C(=O)N[C@H](C(=O)N[C@@H](Cc1c[nH]c2ccccc12)C(=O)O)[C@@H](C)CC (H-[X3]LDIIW-OH)	1.00
CC[C@H](C)[C@H](NC(=O)[C@H](CC(=O)O)NC(=O)[C@H](CC(C)C)NC(=O)[C@@H](NC(=O)c1ccccc1)C(c1ccccc1)c1ccccc1)C(=O)N[C@H](C(=O)N[C@@H](Cc1c[nH]c2ccccc12)C(=O)O)[C@@H](C)CC (Bz-[Dip]LDIIW-OH)	-1.52
CC[C@H](C)[C@H](NC(=O)[C@H](CCC(=O)O)NC(=O)[C@H](CC(=O)O)NC(=O)[C@H](CC(C)C)NC(=O)[C@H](NC(C)=O)C(c1ccccc1)c1ccccc1)C(=O)N[C@@H](Cc1c[nH]c2ccccc12)C(=O)O (Ac-[dDip]LDEIW-OH)	0.78
CC[C@H](C)[C@H](NC(=O)[C@H](CC(=O)O)NC(=O)[C@H](CC(C)C)NC(=O)[C@H](NC(C)=O)C1c2ccccc2CCc2ccccc21)C(=O)N[C@H](C(=O)N[C@@H](Cc1c[nH]c2ccccc12)C(=O)O)[C@@H](C)CC (Ac-[dGly(5-dibenzosuberyl)]LDIIW-OH)	-1.82
CCC(=O)N[C@H](C(=O)N[C@@H](CC(C)C)C(=O)N[C@@H](CC(=O)O)C(=O)N[C@H](C(=O)N[C@H](C(=O)N[C@@H](Cc1c[nH]c2ccccc12)C(=O)O)[C@@H](C)CC)[C@@H](C)CC)C(c1ccccc1)c1ccccc1 (Propionyl-[Dip]LDIIW-OH)	-0.59
CC[C@H](C)[C@H](NC(=O)[C@H](Cc1ccc(O)cc1)NC(=O)[C@H](CC(C)C)NC(=O)[C@H](NC(C)=O)C(c1ccccc1)c1ccccc1)C(=O)N[C@H](C(=O)N[C@@H](Cc1c[nH]c2ccccc12)C(=O)O)[C@@H](C)CC	-1.10
CC[C@H](C)[C@H](NC(=O)[C@H](CC(=O)O)NC(=O)[C@H](CC(C)C)NC(=O)[C@@H](NS(C)(=O)=O)C(c1ccccc1)c1ccccc1)C(=O)N[C@H](C(=O)N[C@@H](Cc1c[nH]c2ccccc12)C(=O)O)[C@@H](C)CC (Ms-[Dip]LDIIW-OH)	-0.59
